Known viability, T/C of a selection of compounds
- Tested on: 966289-007-R4-J1-PDC complex spheroid viability
- assay_overview: Anticancer human tumor 966289-007-R4-J1-PDC patient-derived pancreatic adenocarcinoma cell line growth inhibition [GQUAD]
- setup_conditions: second compound 0.1 µM; first compound 0.1 µM; active compounds read low

Please review the entries below; each comes with its answer.
[
  {
    "compound": "CC(C)(O)C1CCC(Nc2ccc3ncc(-c4cccc(C(F)(F)F)c4)n3n2)CC1 (stereo not given) + Cc1[nH]c2ccc(F)cc2c1-c1nc2c3cccnc3c3ncccc3c2[nH]1",
    "system_name": "966289-007-R4-J1-PDC complex spheroid viability",
    "viability, T/C": "100%"
  },
  {
    "compound": "C=CCn1c(=O)c2cnc(Nc3ccc(N4CCN(C)CC4)cc3)nc2n1-c1cccc(C(C)(C)O)n1 + CN(C)c1ccc(Nc2c3ccc(NC(=O)CCN4CCCC4)cc3nc3cc(NC(=O)CCN4CCCC4)ccc23)cc1",
    "system_name": "966289-007-R4-J1-PDC complex spheroid viability",
    "viability, T/C": "103%"
  },
  {
    "compound": "C=CC(=O)N1CCN(c2nc(=O)n(-c3c(C)ccnc3C(C)C)c3nc(-c4c(O)cccc4F)c(F)cc23)C(C)C1 (stereo not given) + CN(C)c1ccc(Nc2c3ccc(NC(=O)CCN4CCCC4)cc3nc3cc(NC(=O)CCN4CCCC4)ccc23)cc1",
    "system_name": "966289-007-R4-J1-PDC complex spheroid viability",
    "viability, T/C": "105%"
  },
  {
    "compound": "Nc1ccn(C2OC(CO)C(O)C2(F)F)c(=O)n1 (stereo not given) + Cc1[nH]c2ccc(F)cc2c1-c1nc2c3cccnc3c3ncccc3c2[nH]1",
    "system_name": "966289-007-R4-J1-PDC complex spheroid viability",
    "viability, T/C": "1%"
  }
]

Entry O=C(NO)c1cnc(N2CCN(S(=O)(=O)c3ccc4ccccc4c3)CC2)nc1 + CN(C)c1ccc(Nc2c3ccc(NC(=O)CCN4CCCC4)cc3nc3cc(NC(=O)CCN4CCCC4)ccc23)cc1 : reported viability, T/C = ? 106%

---

- System: 966289-007-R4-J1-PDC complex spheroid viability
- assay_overview: Anticancer human tumor 966289-007-R4-J1-PDC cell line growth inhibition [GQUAD];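 further: spheroids exposed to the agents for seven days before readout; percent viability relative to DMSO vehicle control wells taken as 100%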
- setup_conditions: second compound 0.0316 µM; first compound 0.0316 µM; active compounds read low
Known viability, T/C of a selection of compounds
Write the value in % as a bare number.

Please review the entries below; each comes with its answer.
[
  {
    "compound": "Cc1[nH]c2ccccc2c1CCNCc1ccc(/C=C/C(=O)NO)cc1 + Cc1cnc(CNC(=O)c2c(=O)c3ccc(N4CCCN(C)CC4)nc3n3c2sc2ccccc23)cn1",
    "viability, T/C, %": 72
  },
  {
    "compound": "Nc1ccn(C2OC(CO)C(O)C2(F)F)c(=O)n1 (stereo not given) + Cc1cnc(CNC(=O)c2c(=O)c3ccc(N4CCCN(C)CC4)nc3n3c2sc2ccccc23)cn1",
    "viability, T/C, %": 2.51
  },
  {
    "compound": "COc1cccc2c1C(=O)c1c(O)c3c(c(O)c1C2=O)CC(O)(C(=O)CO)CC3OC1CC(N)C(O)C(C)O1 (stereo not given) + Cc1[nH]c2ccc(F)cc2c1-c1nc2c3cccnc3c3ncccc3c2[nH]1",
    "viability, T/C, %": 114
  },
  {
    "compound": "CC1COCCN1c1cc(-c2ccnn2C)c2ccnc(-c3ccn[nH]3)c2n1 (stereo not given) + CN(C)c1ccc(Nc2c3ccc(NC(=O)CCN4CCCC4)cc3nc3cc(NC(=O)CCN4CCCC4)ccc23)cc1",
    "viability, T/C, %": 113
  },
  {
    "compound": "CC(C)(O)C1CCC(Nc2ccc3ncc(-c4cccc(C(F)(F)F)c4)n3n2)CC1 (stereo not given) + Cc1cnc(CNC(=O)c2c(=O)c3ccc(N4CCCN(C)CC4)nc3n3c2sc2ccccc23)cn1",
    "viability, T/C, %": 103
  }
]

Entry COc1ccc([C@@H](O)c2cc(-c3ncnc4cc(N5CCOCC5)ccc34)c(F)cc2Cl)nn1 + Cc1cnc(CNC(=O)c2c(=O)c3ccc(N4CCCN(C)CC4)nc3n3c2sc2ccccc23)cn1 : reported viability, T/C = ? 119

Entry CC1COCCN1c1cc(C2(O)CC3CCC(C2)O3)c2cnn(-c3ccn[nH]3)c2n1 (stereo not given) + CN(C)c1ccc(Nc2c3ccc(NC(=O)CCN4CCCC4)cc3nc3cc(NC(=O)CCN4CCCC4)ccc23)cc1 : reported viability, T/C = ? 116

Entry CC(=O)O[C@H]1C(=O)[C@@]2(C)[C@H]([C@H](OC(=O)c3ccccc3)[C@]3(O)C[C@H](OC(=O)[C@H](O)[C@@H](NC(=O)c4ccccc4)c4ccccc4)C(C)=C1C3(C)C)[C@]1(OC(C)=O)CO[C@@H]1C[C@@H]2O + CN(C)c1ccc(Nc2c3ccc(NC(=O)CCN4CCCC4)cc3nc3cc(NC(=O)CCN4CCCC4)ccc23)cc1 : reported viability, T/C = ? 6.18

Entry CCc1c2c(nc3ccc(O)cc13)-c1cc3c(c(=O)n1C2)COC(=O)[C@]3(O)CC + CN(C)c1ccc(Nc2c3ccc(NC(=O)CCN4CCCC4)cc3nc3cc(NC(=O)CCN4CCCC4)ccc23)cc1 : reported viability, T/C = ? 0.58

Entry CC(C)n1c(=O)n(C)c2cnc3cc(F)c(-c4ccc(OCCCN5CCCCC5)nc4)cc3c21 + Cc1[nH]c2ccc(F)cc2c1-c1nc2c3cccnc3c3ncccc3c2[nH]1 : reported viability, T/C = ? 112
